value-kind: melting point

Solved cases below.
CS(=O)(=O)Nc1cccc(Nc2nc(NCCc3c[nH]cn3)c3nc[nH]c3n2)c1 ... 205 to 210 °C
Cc1cc(C(C)(C)C)cc(C)c1[N+](=O)[O-] ... 80 to 82 °C
c1ccc2c(c1)CCc1c-2noc1N1CCNCC1 ... 97 to 99 °C
CCC(O)(c1cccc(O)c1)c1nccs1 (centres undefined) ... 145 to 146 °C
COC(=O)c1ccc([N+](=O)[O-])c(OC(C)C)c1 ... 46 to 48 °C

// next entry
Input line: Please report the recorded melting point for O=C(Nc1ccc(OCCN2CCOCC2)c2ccccc12)c1cc(F)cc(N2CCOCC2)c1 .
Output line: 123 to 124 °C

----------
melting point overview

Example entries begin here.
Cc1cc2c(cc1C)C(c1ccccc1Cl)C(=O)N2 (configuration not stated) ... 231 °C
CCc1c2c(cc3c(=O)cc(C(=O)O)oc13)CCCC2 ... 269 to 271 °C

Input line: Which melting point value belongs to CN(C)CC/C=C1/c2ccccc2COc2ccc(C(=O)O)cc21 ?
Output line: 121 to 123 °C

Input line: Given the entry CC(=CC(=O)OCCCCCCCCC(=O)O)CC1OCC(CC2OC2C(C)C(C)O)C(O)C1O (configuration not stated) , report its measured melting point.
Output line: 73 to 75 °C

Input line: Field request: melting point | item: CCCn1nc(C2CC2)c(C(=O)OCC)c1Cc1ccc(-c2ccccc2S(N)(=O)=O)cc1
Output line: 70 to 77 °C

----------
# reported melting point; entries follow

Here is how some compounds turned out for melting point.
CCCCOc1ccc2c(O)c(C(=O)NCCO)nc(Cl)c2c1 ... 118 to 120 °C
CC(C)Oc1nc(SCc2cccc(C(F)(F)F)c2)nc2[nH]c(=O)cnc12 ... 205 to 206 °C
O=C(CCCCl)c1ccc2ccccc2c1O ... 73 to 79 °C
CCOc1cc(Cc2cnc(N)nc2N)cc2c1OC(C)(C)C=C2c1ccc(OC)c(OC)c1 ... 191 to 192 °C
COc1cc2oc(=O)c(CCCl)c(C)c2cc1OC(C)C ... 125 to 127 °C

Then there is this compound:
Input line: Requested read-out: melting point. Entry: COc1c(NC(=O)Nc2ccc(-c3ccc(CN4CCOCC4)nc3)c3ccccc23)cc(C(C)(C)C)cc1Nc1c(N(C)C)c(=O)c1=O
Output line: 176 to 179 °C

----------
Form field: melting point (one value per entry).

Some compounds with recorded melting point:
C=CC(C)(C)c1c(C=O)c2ccc(Cl)cc2n1COCc1ccccc1 ... 227 °C
CC(C)c1nc2c(nc1C(C)C)-c1c(c(-c3ccc(C(=O)O)cc3)cn1Cc1cccnc1)CC2 ... 100 to 102 °C

Next:
Input line: What does the data say about its melting point? Entry: CC(C)(C)OC(=O)Nc1cc(N2CCOCC2)c(C#Cc2ccccc2)cc1[N+](=O)[O-]
Output line: 190 to 191 °C

----------
Examples of compounds with documented melting point follow.

CCOCc1nc2c(N)nc3ccccc3c2n1CCCCCS(=O)(=O)N(C)C ... 138 to 142 °C

Input line: So what's the measured melting point for this one? Cc1nc(N2C(=O)N(Cc3ccc(F)cc3)CC2O)sc1C(=O)NCc1cccnc1 (stereo unspecified)
Output line: 64 to 66 °C

Input line: # input compound: O=C(O)Cc1ccc(OCCNC(=O)C2Cc3ccccc3N2S(=O)(=O)c2ccc(-c3ccc(F)cc3Cl)cc2)cc1 (stereo unspecified) ; wanted: its melting point
Output line: 90 °C

----------
value-kind: melting point

Reference set (3 entries):
CCCN(CCC)c1c(CC)nn2c(-c3ccc(N(C)C)cc3Cl)cccc12 ... 133 to 134 °C
FC(F)(F)Oc1ccc2[nH]c(-c3cccnc3)nc2c1 ... 197 to 199 °C
Cc1cc(C)cc(OCCCC(=O)O)c1 ... 66 to 68.5 °C

// moving on: another record for melting point
Input line: May I ask what melting point has been recorded for CCCCCCCCCCCCOc1ccc(C(=O)OC)cc1 ?
Output line: 56 to 57 °C

----------
Collected melting point values appear next to each entry.

A selection of reference data follows.
CSc1ccc(/C=C2/C(C)=C(CCCCN(O)C(N)=O)c3cc(F)ccc32)cc1 ... 154 to 157 °C
CCCCCc1ccc(C(N)C(=O)O)[nH]1 (stereo unspecified) ... 190 to 195 °C
CCOCc1nc2c(N)nc3cc(N4CCCC4=O)ccc3c2n1CC(C)(C)O ... 200 to 202 °C
O=C=NC(=O)CS(=O)(=O)c1ccc2ccccc2c1 ... 152 to 155 °C
CCCCCCC(Oc1ccc(C2=CCCCC2)cc1)C(=O)O (stereo unspecified) ... 70 to 71 °C
COc1cc2cc(/C=C/c3ccccc3)[nH]c2cc1OCc1ccccc1 ... 140 to 145 °C

Input line: I would be grateful if you could share the reported melting point for CC(C)(C)C(NC(=O)c1ccc(Cl)cc1)NC(=NC#N)Nc1ccccc1F (stereo unspecified) .
Output line: 208 to 209 °C

Input line: Look at this molecule and give its reported melting point. O=C(CCl)Nc1ccc2c(c1)CC(=O)N2
Output line: 166 to 170 °C

Input line: Need melting point, item CN(C)C1CC=C(c2c[nH]c3ccc(NC(=N)c4cccs4)cc23)CC1 (stereo unspecified)
Output line: 113 to 115 °C

Input line: Return reported melting point; argument: COc1ccccc1N1CCN(CCCCN2CCN(c3ccccc3)C2=O)CC1
Output line: 94 to 95 °C

Input line: What does the record list as melting point for CC(C)(C)OC(=O)COC1CCN(C(=O)[C@H](Cc2ccc(OC(C)(C)C)cc2)NC(=O)c2ccc(C#N)cn2)CC1 ?
Output line: 122 to 123 °C

----------
We begin with a simple list: items and their reported melting point.

Here's what some known entries look like.
N#Cc1ccc(C(F)(F)F)cc1Sc1ccccc1N ... 102 to 104 °C
CNC1(C)CN(c2cc3c(cc2F)c(=O)c2c(=O)[nH]sc2n3C2CC2)C1 ... 286 to 290 °C
COCC(=O)Oc1cc(=O)n(-c2ccccc2)c2ncccc12 ... 155 to 157 °C
Cc1ncnn1-c1ccc([N+](=O)[O-])cc1F ... 56 to 58 °C
O=C(Nc1ccc(-n2cccn2)c(F)c1)OCc1ccccc1 ... 82 to 83 °C
CN(C)c1ccc(C2CCCN2S(=O)(=O)c2ccc(Cl)cc2)cc1F (racemic) ... 99 °C

Input line: Fill blank: measured melting point of the molecule COC(=O)c1ccc(OC)cc1NC(C)=O is ____.
Output line: 123 to 126 °C

Input line: Requested read-out: melting point. Entry: COc1ccc(C2=NN(C3CCN(S(=O)(=O)c4ccccc4F)CC3)C(=O)CC2)cc1OC
Output line: 198 to 199 °C

Input line: Fill in the blank: the reported melting point of O=C(O)c1nnc2ccc(NCCCN3CCC(OC(c4ccccc4)c4ccccc4)CC3)nn12 is ____.
Output line: 102 to 104 °C

Input line: Recorded melting point of Cc1ccc(NS(=O)(=O)c2ccc(Cl)nc2)c2[nH]cc(C#N)c12 , please.
Output line: 262 to 263 °C

Input line: Could you share which melting point value was measured for COc1nnc(-c2ccccc2)c(=O)n1N ?
Output line: 165 °C

Input line: Quick one: melting point of COC(=O)COc1cccc(NC(=O)NCC(=O)N(CC(=O)OC(C)(C)C)c2ccccc2C(=O)c2ccccc2)c1 ?
Output line: 74 to 77 °C

----------
value-kind: melting point

Consider the reported melting point for these compounds:
O=C(NCCCCc1ccccc1)OC1CCN(C(=O)OC2CCN(C(=O)Oc3ccc(Oc4ccccc4)cc3)CC2)CC1 ... 50 to 60 °C
CC(=O)NC[C@H]1CN(c2ccc(N3CCC(n4ncn(C)c4=S)CC3)c(F)c2)C(=O)O1 ... 182 to 185 °C
CCOC(=O)CC1Cc2ccc(O)cc2Cc2ccccc21 (stereo not given) ... 110 to 112 °C
Cc1cc(Br)n2ccnc2c1 ... 53 to 54 °C

Proceeding to the next compound to report its melting point.
Input line: Look up melting point for this compound: CCOC(=O)/C=C/c1cn(-c2ccccc2)nc1OCc1ccc(OCc2nc(-c3ccco3)oc2C)cc1
Output line: 142 to 143 °C

----------
This section presents compounds with their documented melting point values.

CS(=O)(=O)c1ccc2c(c1)C=C(C(=O)O)C(C(F)(F)F)O2 (configuration not stated) ... 208 to 212 °C
CCCC(=O)c1cnc2c(OC)cc(O)cc2c1Nc1ccc(O)cc1C ... 251 to 253 °C
CCOc1cc(N)c(Cl)cc1C(=O)NCC1CN(Cc2ccccc2Cl)C(C)(C)CO1 (configuration not stated) ... 181 to 184 °C
S=C=Nc1cc(-c2nc(-c3ccco3)no2)ccc1Cl ... 131 to 132 °C
CC(C)(C)OC(=O)N[C@@H](Cc1ccc(O)c(O)c1)C(=O)O ... 148 °C
CCOC(=O)C(C(=O)NCc1ccccc1)=C1SC=CS1 ... 79 to 81 °C
NS(=O)(=O)CS(=O)(=O)c1ccc(S(=O)(=O)CCCO)cc1 ... 200 °C
COc1ccc(CCc2nnc(-c3ccc4[nH]nnc4c3)o2)cc1C(F)(F)F ... 154 to 155 °C

Input line: Bench note: what melting point did OCC#Cc1ccc(Br)cn1 show?
Output line: 121 to 122 °C

Input line: Bench note: what melting point did Cc1ccc(-n2cccc2-c2ccc(S(C)(=O)=O)cc2)cc1C show?
Output line: 134 to 137 °C

Input line: Recorded melting point for O=C1CCC(N2Cc3cc(CNC(=O)Nc4ccc(Cl)c(Cl)c4)ccc3C2=O)C(=O)N1 (configuration not stated) , please?
Output line: 238 to 240 °C

Input line: Please report the recorded melting point for CCC(=O)N(C(=O)CC)c1c(C#N)cnn1-c1ccc(Cl)c(Cl)c1Cl .
Output line: 133 to 134 °C

Input line: Which melting point is reported for this compound? CCN1C(=O)c2cccnc2Sc2ccccc21
Output line: 148 to 149 °C

Input line: Reported melting point for O=Cc1ncn2c1[C@@H]1CCCN1C(=O)c1ccccc1-2 : what is it?
Output line: 206 to 208 °C

From: a melting point compilation (Tetko et al.; mined from patent text by program, amines drawn as free bases though some values may be those of a salt)
